# ASSAY TARGET: TRMT112 (Homo sapiens, UniProt Q9NRN9+Q9UI30)
# Sequence (Q9UI30 whole entry): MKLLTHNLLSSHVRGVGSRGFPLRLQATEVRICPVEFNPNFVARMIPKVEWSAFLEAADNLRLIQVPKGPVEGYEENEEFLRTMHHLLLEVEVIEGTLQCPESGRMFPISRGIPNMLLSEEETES
# Sequence (Q9NRN9 whole entry): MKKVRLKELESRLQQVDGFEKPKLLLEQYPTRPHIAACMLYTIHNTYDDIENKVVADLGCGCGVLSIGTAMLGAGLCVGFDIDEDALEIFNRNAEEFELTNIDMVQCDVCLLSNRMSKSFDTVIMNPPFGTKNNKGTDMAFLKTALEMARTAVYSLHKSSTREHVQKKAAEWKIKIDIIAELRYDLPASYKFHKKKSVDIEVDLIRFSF
# METHOD: […] A cocrystal structure; intact MS (kobs/[I][…] s-1); competitive gel-ABPP on purified complex
# Type: binding
# Design: full-length, tag-free TRMT112:METTL5 complex (crystal); TRMT112:His-METTL5 (IC50); with METTL5

{"columns": ["COMPOUND", "ASSAY TARGET", "IC50, nM"],
 "data": [
  ["C=CC(=O)N1C[C@@H]2[C@H](C1)[C@@H](c1cccc(Cl)c1)C[C@H]2Oc1ccc(NC(C)=O)cc1 [compound 22, FWG-33B]", "TRMT112 (Homo sapiens, UniProt Q9NRN9+Q9UI30)", 470]
]}
